The reader will find reported pIC50 values listed item by item below.
- STUDY_SYSTEM: human leukocyte elastase (HLE) (Homo sapiens, UniProt P08246)
- Sequence (P08246 30-247 limits assumed): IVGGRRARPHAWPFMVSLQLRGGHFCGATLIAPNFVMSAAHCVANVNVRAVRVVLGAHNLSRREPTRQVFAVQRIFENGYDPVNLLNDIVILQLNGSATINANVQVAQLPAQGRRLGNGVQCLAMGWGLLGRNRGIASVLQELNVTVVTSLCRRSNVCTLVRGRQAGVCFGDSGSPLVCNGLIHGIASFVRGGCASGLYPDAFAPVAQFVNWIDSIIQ
Just the number, please; pIC50 means minus log10 of the concentration in mol/L.

What value of pIC50 has been recorded for this entry: Cc1cccc2nc([C@@H](NC(=O)[C@@H]3CCCN3C(=O)CCc3ccccc3)C(C)C)oc(=O)c12 [Example 4]
6.28

====

Listing of recorded IC50 by entry.
- STUDY_SYSTEM: human cathepsin G (HCG) (Homo sapiens, UniProt P08311)
- Construct: purchased Cosmo Bio Co. Ltd., Tokyo, Japan
- Sequence (P08311 21-244 limits assumed): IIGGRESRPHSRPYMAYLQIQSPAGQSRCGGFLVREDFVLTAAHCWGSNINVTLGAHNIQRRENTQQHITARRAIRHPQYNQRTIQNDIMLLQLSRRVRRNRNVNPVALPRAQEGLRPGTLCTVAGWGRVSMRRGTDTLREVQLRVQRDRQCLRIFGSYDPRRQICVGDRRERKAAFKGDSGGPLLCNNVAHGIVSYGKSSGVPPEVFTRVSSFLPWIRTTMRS
- ASSAY_TEXT: Test 3: Measurement of inhibitory activity against HCG
- Format: biochemical
- APPLIED_CONDITIONS: MeO-Suc-Ala-Ala-Pro-Phe-pNA substrate, pH 7.5, same procedure as Test 1

Worked set:
{"STRUCTURE_SMILES": "CSCC[C@H](NC(=O)[C@@H]1CCCN1C(=O)OCc1ccccc1)c1nc2cccc(C)c2c(=O)o1", "IC50": "> 50 µM"}
{"STRUCTURE_SMILES": "Cc1cccc2nc([C@@H](NC(=O)[C@@H]3CCCN3C(=O)OC(C)(C)C)C(C)C)oc(=O)c12", "IC50": "26.5 µM"}

Turning now to a further record.
Find IC50 (human cathepsin G (HCG) (Homo sapiens, UniProt P08311)) for the entry CCCCCC(=O)N1CCC[C@H]1C(=O)N[C@H](c1nc2cccc(C)c2c(=O)o1)C(C)C
> 140 µM
